In this section we review reported IC50 values for a set of molecules.
Molecular target: AKT3 (Homo sapiens)
Sequence (Q9Y243 whole entry): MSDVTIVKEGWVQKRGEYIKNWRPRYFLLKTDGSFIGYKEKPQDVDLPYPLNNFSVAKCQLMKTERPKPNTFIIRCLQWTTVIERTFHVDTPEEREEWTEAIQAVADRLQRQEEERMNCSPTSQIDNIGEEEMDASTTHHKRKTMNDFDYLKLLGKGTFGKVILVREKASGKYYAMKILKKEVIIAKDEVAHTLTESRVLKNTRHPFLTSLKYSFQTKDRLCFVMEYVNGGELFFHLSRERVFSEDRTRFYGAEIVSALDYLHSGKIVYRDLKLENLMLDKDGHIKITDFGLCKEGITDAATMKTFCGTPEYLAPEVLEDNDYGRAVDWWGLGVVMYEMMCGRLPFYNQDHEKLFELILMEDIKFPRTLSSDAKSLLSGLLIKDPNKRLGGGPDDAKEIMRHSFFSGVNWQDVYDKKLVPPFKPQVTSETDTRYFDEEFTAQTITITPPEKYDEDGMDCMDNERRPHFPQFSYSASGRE
Assay: AKT Kinase Assay (IMAP fluorescent polarisation) vs AKT3
Conditions: activated AKT3, FAM Crosstide substrate
Where a name gives a salt, the structure may show the parent alone.

{"columns": ["MOLECULE", "IC50"],
 "data": [
  ["NC1(c2ccc(-c3oc4ccn(CCF)c(=O)c4c3-c3ccccc3)cc2)CCC1", "> 10 µM"],
  ["CNc1nc2oc(-c3ccc(C4(N)CCC4)cc3)c(-c3ccccc3)c2c(=O)n1CC1CC1", "1 to 10 µM"],
  ["COCCNc1nc(OC)c2c(-c3ccccc3)c(-c3ccc(C4(N)CCC4)cc3)oc2n1", "> 10 µM"],
  ["NC1(c2ccc(-c3oc4cnccc4c3I)cc2)CCC1", "1 to 10 µM"],
  ["NC1(c2ccc(-c3oc4ncn(CCO)c(=O)c4c3-c3ccccc3)cc2)CCC1 [Example 102, HCl]", "1 to 10 µM"],
  ["Cc1n[nH]c(C)c1-c1cnc2oc(-c3ccc(C4(N)CCC4)cc3)c(-c3ccccc3)c2n1", "> 10 µM"]
]}

Recorded IC50 for `NC1(c2ccc(-c3oc4nccnc4c3-c3ccccc3)cc2)CCC1` , please?
> 10 µM

Quick one: `CCn1c(NC)nc2oc(-c3ccc(C4(N)CCC4)cc3)c(-c3ccccc3)c2c1=O`
1 to 10 µM

Quick one: `CSc1nc(I)c2c(-c3ccccc3)c(-c3ccc(C4(N)CCC4)cc3)oc2n1`
> 10 µM

Quick one: CCn1cnc2oc(-c3ccc(C4(N)CCC4)cc3)c(-c3ccccc3)c2c1=O [Example 104, HCl]
1 to 10 µM

Quick one: NC1(c2ccc(-c3oc4ccn(CC(F)(F)F)c(=O)c4c3-c3ccccc3)cc2)CCC1 [Example 109, HCl]
> 10 µM

Quick one: CNc1nc(OCCF)c2c(-c3ccccc3)c(-c3ccc(C4(N)CCC4)cc3)oc2n1 [Example 89, HCl]
1 to 10 µM

Quick one: COCCn1cnc2oc(-c3ccc(C4(N)CCC4)cc3)c(-c3ccccc3)c2c1=O [Example 105, HCl]
1 to 10 µM

Quick one: NC1(c2ccc(-c3oc4ncc(-c5ccccc5)nc4c3-c3ccccc3)cc2)CCC1 [Example 139, HCl]
1 to 10 µM

Quick one: `COc1nc(-n2ccnc2)nc2oc(-c3ccc(C4(N)CCC4)cc3)c(-c3ccccc3)c12`
> 10 µM

Quick one: `COc1nccc2c(-c3ccccc3)c(-c3ccc(C4(N)CCC4)cc3)oc12`
> 10 µM

The measured values listed here are drawn from patent US20120309739A1.
